These measurements were taken from the supplement of paper PMC12636033.

Kindly supply the reported PBM 8-mer E-score values for the records listed here.
Test system: WT Max(13-93) synthetic (M65Nle)
Test: PBM 8-mer E-score (E-score (rank enrichment, -0.5 to 0.5)); higher = stronger preferential binding
Whole data set: some 33,000 sequences, median “E-score (rank enrichment, -0.5 to 0.5)” near -0.0075, cut for the highest 2% near 0.23. Many of the other results were omitted from the sample, so the highest values are more common in it than they were.
Answers are plain numbers.

Would you please look over these solved cases?
ACTCGTTA = -0.0291
ATGTTTTG = 0.24
GATTAATA = 0.266

Can you give me PBM 8-mer E-score for all of these, one by one?
1. GCGTCGAA
2. CTGGTGAA
3. ACGTTTTG

OUTPUT:
1. 0.00213
2. -0.0735
3. 0.101

Can you give me PBM 8-mer E-score for all of these, one by one?
1. GAAGACAA
2. AATTAAAG
3. CTGTTTAC
4. ATGTTTGG
5. ATGTTTTA

OUTPUT:
1: -0.00129; 2: 0.184; 3: 0.0925; 4: 0.147; 5: 0.102

Can you give me PBM 8-mer E-score for all of these, one by one?
1. CAGAGTGC
2. GCTTCCCA
3. AATGACAG
4. ATGTTTAG
5. CATGACAA
6. ACAACACA
7. TATTAATA
8. CAAGCTCA

OUTPUT:
1. -0.201
2. -0.0247
3. 0.103
4. 0.278
5. 0.196
6. 0.23
7. 0.19
8. -0.35

----------
Tested on: WT Max(13-93) synthetic (M65Nle)
Test: PBM 8-mer E-score (E-score (rank enrichment, -0.5 to 0.5)); higher = stronger preferential binding
The full ranking holds about 33,000 sequences; the median of “E-score (rank enrichment, -0.5 to 0.5)” is about -0.0075, and the highest 2% start at about 0.23. The sample holds the highest values, similar sequences and a random draw of the others, so the mix is not that of the screen.
Lab note: compare PBM 8-mer E-score against 0.2. Equal or greater, write y. Smaller, write n.

GAACCAGC = n
AATACATA = y
GCTTAGGA = n
CATACACG = y
ATTTCCTA = n

INPUT: Answer whether PBM 8-mer E-score of CTGTTGCA is greater than or equal to 0.2.
OUTPUT: n

INPUT: Answer whether PBM 8-mer E-score of AATACATG is greater than or equal to 0.2.
OUTPUT: y

INPUT: Answer whether PBM 8-mer E-score of CGTATACG is greater than or equal to 0.2.
OUTPUT: y

INPUT: Answer whether PBM 8-mer E-score of TCAAATCA is greater than or equal to 0.2.
OUTPUT: n

INPUT: Answer whether PBM 8-mer E-score of GCATAGTA is greater than or equal to 0.2.
OUTPUT: n

----------
Test system: WT Max(13-93) synthetic (M65Nle)
Experiment: PBM 8-mer E-score (E-score (rank enrichment, -0.5 to 0.5)); higher = stronger preferential binding
In all, about 33,000 sequences were measured (“E-score (rank enrichment, -0.5 to 0.5)”: median about -0.0075, highest 2% from about 0.23 on). Many of the other results were omitted from the sample, so the highest values are more common in it than they were.
QUANTITY KIND: PBM 8-mer E-score
Give bare numbers.

Would you please look over these solved cases?
CTCCAAAG = -0.102
GGCTAGAC = -0.217
GTTTTGCA = 0.108
CCGACCGA = -0.158

Can you give me PBM 8-mer E-score for all of these, one by one?
1. ATTTGTTA
2. AAGGGCGT
3. ATGCGCCA
4. CGAATCTA
5. ATTTTGTG
6. GTATGAGA
7. ATATGATG
8. CCACGCGG

OUTPUT:
1. 0.0868
2. -0.0104
3. 0.123
4. -0.0418
5. 0.145
6. 0.109
7. 0.19
8. 0.433

Can you give me PBM 8-mer E-score for all of these, one by one?
1. ACACGCAT
2. ATTTACCG
3. TATGATCA
4. AAACGCGT
5. ACACGCGG

OUTPUT:
[0.159, 0.17, 0.0122, 0.0714, 0.281]

Can you give me PBM 8-mer E-score for all of these, one by one?
1. ATTTGTTC
2. CCACGCGA
3. AATTTCTA
4. CTTTGTTC
5. ACACGCGA

OUTPUT:
[0.241, 0.0546, 0.172, 0.0437, 0.157]
